Taken from patent US20220348651A1.

Quick reference: IC50, ENTPD2 Biochemical Assay at 1 uM ATP of the listed items.
target: recombinant human ENTPD2 extracellular domain (residues 29-462) with C-terminal Avi-His6 tag (human, UniProt Q9Y5L3 29-462, biotinylated on the AviTag in the epitope binning assay); experiment: cell-based or functional assay
Sequence (Q9Y5L3 29-462): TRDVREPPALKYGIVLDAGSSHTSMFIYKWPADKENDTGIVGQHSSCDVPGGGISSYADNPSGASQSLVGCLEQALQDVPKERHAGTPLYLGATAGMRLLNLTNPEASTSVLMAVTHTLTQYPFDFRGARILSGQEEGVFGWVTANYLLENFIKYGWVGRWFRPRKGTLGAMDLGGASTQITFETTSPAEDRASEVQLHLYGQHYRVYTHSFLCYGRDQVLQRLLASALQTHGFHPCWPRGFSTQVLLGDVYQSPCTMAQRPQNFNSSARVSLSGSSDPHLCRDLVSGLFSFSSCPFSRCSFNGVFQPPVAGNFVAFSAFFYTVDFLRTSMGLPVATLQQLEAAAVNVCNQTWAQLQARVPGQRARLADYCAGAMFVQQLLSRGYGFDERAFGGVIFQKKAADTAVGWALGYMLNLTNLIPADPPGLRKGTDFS
Numeric only. Scale: nM

Look over these answered cases.
Binder: ANTI-HUMAN ENTPD2 MAB16 (antibody, human IgG1, kappa, V domains shown) VH: DIQLQESGPGLVKPSQSLSLTCSVTGYSITSGYYWNWIRQFPGNKLEWMGYISYDGDNNYNPSLKNRISITRDTSKNQFFLKLSSVTTEDTATYYCAGGYYRYGLSYYYVMDYWGQGTSVTVSS VL: DTVLTQSPASLAVSLGQRATISCKASQSVDYDGNSYMNWYQQKPGQPPKLLIYAASNLESGIPARFSGSGSGTDFTLNIHPVEEEDAATYYCQQSNEDPPTFGGGTKLEIKR
Value observed: 77.3
//
Binder: ANTI-HUMAN ENTPD2 MAB17 (antibody, human IgG1, kappa, V domains shown) VH: EVQLQQFGAELVKPGASVKISCKASGYTFTDYNMDWVKQSHGKSLEWIGDINPKYDISTYNQQFKGKATLTVDKSSSTAYMELRSLTSEDTAVYYCARRGFFLYYGINYYYFDVWGAGTTVTVSS VL: QIVLTQSPAIMSASLGEEITLTCSASSSVSYIHWYQQKSGTSPTLLIYSTSNLASGVPSRFSGSGSGTFYSLTISSVEAEDAADYYCHQWSSYPWTFGGGTKLEIKR
Value observed: 0.27
//
Binder: ANTI-HUMAN ENTPD2 MAB21 (antibody, human IgG1, kappa, V domains shown) VH: EVQLQQSGPELVKPGASVKISCKTSGYTFTEYTMHWVKQSHGKSLEWIGGINPNNGITTYNQKFKGKATLTVDKSSSTAYMDLRSLTSEGSAVYYCARRGFPIYYYGTSLYYFDYWGQGTTLTVSS VL: QIVLTQSPAIMSASLGEEITLTCSASSSVSYMHWYQQRSGTSPKLLIYTTSNLASGVPSRFSGSGSGTFYSLTISSVEAEDAADYYCHQWSSYPWTFGGGTKLEIKR
Value observed: 0.87
//
Binder: ANTI-HUMAN ENTPD2 MAB19 (antibody, human IgG1, kappa, V domains shown) VH: EVQLQQFGAELVKPGTSVKISCKASGYTFTDYNMDWVKQSHGKSLEWIGDINPNYDITTYNQRFKGKATLTVDKSSSTAYMELRSLTSEDTAVYYCARRGFFPYYGNSYYYFDVWGAGTTVTVSS VL: QIVLTQSPTIMSASLGEEITLTCSASSSVSYMHWYQQKSGTSPKLLIYSTSNLASGVPSRFSGSGSGTFYSLTISSVEAEDAADYYCHQWSNYPWTFGGGTKLEIKR
Value observed: 4.09

Moving on to the next binder.
Briefly, IC50, ENTPD2 Biochemical Assay at 1 uM ATP measured for ANTI-HUMAN ENTPD2 MAB20 (antibody, human IgG1, kappa, V domains shown) VH: EVQLQQFGAELVKPGASVKISCKASGYTFTDYNMDWVKQSHGKSLEWIGDINPNYDITSYNQKFKGKATLTVDKSSSTAYMELRSLTSEDTAVYYCARRGFFLYYGSSYYYFDVWGAGTTVTVSS VL: QIVLTQSPAIMSASLGEEITLTCSASSSVSYMHWYQQKSGTSPKLLIYSTSNLASGVPSRFSGSGSGTFYSLTISSVEAEDAADYYCHQWSSYPWTFGGGTKLEIKR : 17.5
